Reported ELISA Absorbance (405 nm-570 nm) values for the following binders.
Molecular target: T1, APP
T1 construct: His-tagged; coated protein in the ELISA; also called APP-His (Acro Biosystems)
Test: ELISA on coated APP-His, 150 ng IgG1; None 0.092
Format: numeric value only, no unit, no commentary.

| binder | result |
| --- | --- |
| HW-45 chimeric rabbit-human IgG1 LA/LA/PG (antibody, V domains shown, Fc-silenced (L234A/L235A/P329G) IgG1, lambda; Alexa Fluor 647-labeled in single-step flow cytometry; Prototype of cluster C-45) VH: QKQLVESGGRLVTPGTPLTLTCTVSGFSLSSYAMGWFRQAPGKGLEWIGIINSYGSTYYASWAKGRFTISKTSTTVDLKITSPTTEDTATYFCGRRIGSARFDPWGPGTLVTVSS VL: SFVLTQPASVQVNLGQTVSLTCTADTLSRSYASWYQQKPGQAPVLLIYRDTRRPSGVPDRFSGSSSGNTATLTISGAQAGDEADYYCATSDGSGSSYRLVFGGGTQLTVTG | 0.233 |
| HW-81 chimeric rabbit-human IgG1 LA/LA/PG (antibody, V domains shown, Fc-silenced (L234A/L235A/P329G) IgG1, lambda; Alexa Fluor 647-labeled in single-step flow cytometry; Cluster C-45) VH: QKQLVESGGGLVTPGGTLTLTCTVSGFSLSSNGVSWVRQAPGKGLEYIGLIRSIGSTYYATWAKGRFTISKTSTTVDLKITSPTTEDTATYFCARGGYRNGFKLWGPGTLVTVSS VL: QPVLTQSPSVSAALGASAKLTCTLSSAHKTYYIEWYQQQHPGKAPRYLMQLQSDGSYTKGTGVPDRFSGSSSGADRYLIISSVQAEDEADYICGVIDSAVYVFGGGTQLTVTG | 0.081 |

Switching to the query record.
response.value for HW-17 chimeric rabbit-human IgG1 LA/LA/PG (antibody, V domains shown, Fc-silenced (L234A/L235A/P329G) IgG1, lambda; Alexa Fluor 647-labeled in single-step flow cytometry; Cluster C-1) VH: QSLGESRGRLVTPDETLTLTCTVSGIDLSSNAMSWVRQAPGEGLEWIGTINTGGRAYYASWAKGRFTISRTSTTVDLKMTSLTTEDTATYFCARERYSDGRAYDIWGPGTLVTISS VL: SFVLTQPASVQVNLGQTVSLTCTADTLSRRYASWYQQKPGQAPVLLIYTDSNRPSGIPDRFSGSSSGNTATLTISGAQAGDEADYYCATDDGSGSIYQYVFGGGTQLTVTG (field: ELISA Absorbance (405 nm-570 nm)) = 0.062
